- Test description: Cytotoxicity against human polymorphonuclear leukocyte assessed as cell viability at 50 to 100 ug/ml by trypan blue exclusion method
- Protocol conditions: polymorphonuclear leukocytes, read-out: INH
Metric: viability (%)

{"columns": ["Molecule", "Unit symbol", "Recorded value"],
 "data": [
  ["CC/C=C\\C/C=C\\C/C=C\\CCCCCCCC(=O)OC[C@H](CO[C@@H]1O[C@H](CO)[C@H](O)[C@H](O)C1O)OC(=O)CCCCCCC/C=C\\C/C=C\\C/C=C\\CC (single isomer, unassigned)", "%", 100]
]}
